# credit: patent US5464858A

Target: rat brain nitric oxide synthase (Rattus norvegicus)
Sequence (P29476 whole entry): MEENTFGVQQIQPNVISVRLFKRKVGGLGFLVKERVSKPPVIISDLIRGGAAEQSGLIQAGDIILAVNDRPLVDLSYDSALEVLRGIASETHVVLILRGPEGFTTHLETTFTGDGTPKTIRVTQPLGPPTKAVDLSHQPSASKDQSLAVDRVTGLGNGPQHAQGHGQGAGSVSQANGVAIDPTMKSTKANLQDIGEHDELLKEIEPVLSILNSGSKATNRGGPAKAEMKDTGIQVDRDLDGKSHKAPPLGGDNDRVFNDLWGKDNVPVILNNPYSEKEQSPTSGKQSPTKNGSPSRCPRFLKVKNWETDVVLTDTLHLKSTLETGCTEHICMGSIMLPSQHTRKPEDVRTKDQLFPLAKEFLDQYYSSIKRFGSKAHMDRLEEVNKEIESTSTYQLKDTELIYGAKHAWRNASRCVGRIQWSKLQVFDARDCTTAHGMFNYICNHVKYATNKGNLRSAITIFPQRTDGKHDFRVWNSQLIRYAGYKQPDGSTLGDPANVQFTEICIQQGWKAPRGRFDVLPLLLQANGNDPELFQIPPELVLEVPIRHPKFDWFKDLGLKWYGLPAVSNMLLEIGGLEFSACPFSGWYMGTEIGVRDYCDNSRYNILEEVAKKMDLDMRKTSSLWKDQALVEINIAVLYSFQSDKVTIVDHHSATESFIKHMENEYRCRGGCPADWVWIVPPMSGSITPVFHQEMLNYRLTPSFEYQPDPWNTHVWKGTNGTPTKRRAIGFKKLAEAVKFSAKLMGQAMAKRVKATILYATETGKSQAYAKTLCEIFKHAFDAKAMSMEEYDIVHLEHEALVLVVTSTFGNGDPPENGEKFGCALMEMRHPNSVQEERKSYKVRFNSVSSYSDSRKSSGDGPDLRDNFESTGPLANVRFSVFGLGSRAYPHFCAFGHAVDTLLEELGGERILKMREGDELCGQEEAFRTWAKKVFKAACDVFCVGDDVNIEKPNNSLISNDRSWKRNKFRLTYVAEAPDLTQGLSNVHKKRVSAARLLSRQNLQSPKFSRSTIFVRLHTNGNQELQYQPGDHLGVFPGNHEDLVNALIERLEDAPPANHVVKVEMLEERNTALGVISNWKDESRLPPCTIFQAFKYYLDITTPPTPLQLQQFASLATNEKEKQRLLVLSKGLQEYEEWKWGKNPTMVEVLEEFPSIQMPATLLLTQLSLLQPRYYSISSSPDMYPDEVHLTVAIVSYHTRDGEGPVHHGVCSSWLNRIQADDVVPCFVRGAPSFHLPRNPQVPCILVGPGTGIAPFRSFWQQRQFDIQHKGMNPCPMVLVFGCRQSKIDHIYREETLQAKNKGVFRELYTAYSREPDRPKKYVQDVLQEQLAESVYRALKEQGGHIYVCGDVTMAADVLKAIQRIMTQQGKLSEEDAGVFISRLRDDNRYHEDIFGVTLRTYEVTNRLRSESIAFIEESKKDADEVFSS
pKi: −log10 of the molar value.
readout-kind: pKi

Data request, read-out pKi, for NC(=S)NCCC[C@H](N)C(=O)O ~5.70
